- System: Escherichia coli TOP10;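 further: peptides expressed intracellularly from a pBAD plasmid library in pooled LB shake-flask culture, induced with 0.3% L-arabinose, DNA abundance read by NGS, three biological replicates, DESeq2 with apeglm shrinkage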
- assay.explanation: shrunken log2 fold change of peptide-encoding DNA abundance (4.5 h post-induction vs induction); higher = less antimicrobial activity (less host growth inhibition)
- run.parameters: time post-induction: 4.5 h; library: site-saturation at positions 5, 18, 19, 20
Kindly supply the reported shrunken log2 fold change values for the records listed here.
Give bare numbers.

| sequence.content | target.under.test | readout.number |
| --- | --- | --- |
| RRIRARPPRLPRPRPRPMMWPRP | Escherichia coli TOP10 | 0.617 |
| RRIRMRPPRLPRPRPRPRLTPRP | Escherichia coli TOP10 | 1.13 |
| RRIRERPPRLPRPRPRPITVPRP | Escherichia coli TOP10 | 0.0995 |
| RRIRIRPPRLPRPRPRPELVPRP | Escherichia coli TOP10 | -0.105 |
| RRIRSRPPRLPRPRPRPDKKPRP | Escherichia coli TOP10 | -0.158 |

For each of the sequences below, state shrunken log2 fold change.
1. RRIRGRPPRLPRPRPRPQEYPRP
2. RRIRARPPRLPRPRPRPWHPPRP
3. RRIRFRPPRLPRPRPRPDKPPRP
4. RRIRWRPPRLPRPRPRPRETPRP
5. RRIRRRPPRLPRPRPRPYLFPRP
6. RRIRFRPPRLPRPRPRPPKEPRP

Given back:
1. -0.00348
2. -0.00894
3. 0.0269
4. 0.936
5. -0.305
6. 0.0652

Batch lookup, shrunken log2 fold change per entry.
1. RRIRNRPPRLPRPRPRPAGIPRP
2. RRIRFRPPRLPRPRPRPCIKPRP
3. RRIRVRPPRLPRPRPRPPVCPRP
4. RRIRKRPPRLPRPRPRPLTCPRP
5. RRIRQRPPRLPRPRPRPSFQPRP
6. RRIRARPPRLPRPRPRPKLTPRP

Given back:
1. -0.0145
2. -0.0867
3. 0.191
4. -0.000599
5. -0.467
6. 0.167

State recorded shrunken log2 fold change for all listed sequences.
1. RRIRIRPPRLPRPRPRPCFFPRP
2. RRIRWRPPRLPRPRPRPLSCPRP
3. RRIRVRPPRLPRPRPRPFMAPRP
4. RRIRRRPPRLPRPRPRPEWTPRP
5. RRIRRRPPRLPRPRPRPGIMPRP
6. RRIRARPPRLPRPRPRPNTRPRP
7. RRIRFRPPRLPRPRPRPKKKPRP
8. RRIRKRPPRLPRPRPRPGKGPRP

Given back:
[-0.503, 0.154, -0.128, 0.0215, 0.156, 0.12, -0.00928, -0.0491]

I need shrunken log2 fold change for every entry listed below, if you could help.
1. RRIRCRPPRLPRPRPRPLCNPRP
2. RRIRQRPPRLPRPRPRPTGEPRP
3. RRIRYRPPRLPRPRPRPTYWPRP
4. RRIRNRPPRLPRPRPRPPFSPRP

Given back:
1. -0.244
2. 0.0647
3. -0.318
4. 0.032

Hi! Can you tell me shrunken log2 fold change for each of these sequences?
1. RRIRVRPPRLPRPRPRPSYRPRP
2. RRIRVRPPRLPRPRPRPTNHPRP
3. RRIRMRPPRLPRPRPRPGSWPRP

Given back:
[-0.775, -0.384, 0.858]
